target: NDE1; assay: pooled miR-30 sensor sort-seq; sequence = guide strand; conditions: shRNA
Use satisfied when the recorded sensor-assay potency score (higher = more potent) is no lower than -0.7; use not satisfied when it is lower.

Below are worked cases with known answers.
TTGCTTGCTCCAGCTCTCTGAT :: not satisfied
TTTGCTTGCTCCAGCTCTCTGA :: satisfied
TCTGTTTGTAGGTCATCGCCAG :: satisfied
TTCTCGGAGTTCCTCTTGCGTA :: not satisfied
TCTTCGAGAGACATGATCGTGG :: satisfied

Shift focus to the following entry.
Req: Is the recorded value of sensor-assay potency score (higher = more potent) equal to or greater than -0.7 for this sequence? TTGATTTGGACAACCAGCGGCA
Resp: satisfied

====

molecular target: ABCA10; assay: pooled miR-30 sensor sort-seq; sequence = guide strand; conditions: shRNA
Decision: sensor-assay potency score (higher = more potent) compared against -0.2; not below it gives rule met, below it gives rule not met.

TTCTTCTTCGGGCTCTTCCGGA :: rule not met

Req: Textbook exercise: given the entry TTGAACATCTTCATCTTCTTCT , state whether its sensor-assay potency score (higher = more potent) is greater than or equal to -0.2.
Resp: rule met

Req: # iterate: TTATTTTTTCTCCACTTGCGAA
Resp: rule not met

Req: Next up: TTATTAACGATTAACAGGCTGG
Resp: rule not met

Req: Next sequence: TATCACTAAATATAACTCCCAC
Resp: rule not met

Req: Entry TATTCTTTTATAACATTTCTGA please
Resp: rule met

Req: Try TTTATTTTAGCAAATACCCTGA next.
Resp: rule met

Req: Follow-up entry: TTAGACAGAAATACTTTCCTAT
Resp: rule met

====

target: RHOJ; experiment: pooled miR-30 sensor sort-seq; sequence = guide strand; details: shRNA
sensor-assay potency score (higher = more potent) values for the sequences below.
Answer as a number with no unit attached.

Consider the reported sensor-assay potency score (higher = more potent) for these sequences:
ATAGTGGTCAAACACAGTGGGC :: -0.911
TTGGCTGCCATTCTCATCCCTG :: -0.433

Req: Param item = TTCTGAGTCAGAGCTGAACATT ; retrieve measured sensor-assay potency score (higher = more potent).
Resp: -1.66

Req: What do you have for TTTGAGACCTTTCTGAGTCAGA ?
Resp: -0.62

Req: Next record, please: TCAACATCTTCTTCTCGTCGTT
Resp: 0.0564

Req: Next: TAGCACTGTGCTCCGATCGCTT
Resp: -0.602

Req: Please give the result for TTCAACATCTTCTTCTCGTCGT too.
Resp: 0.937

====

molecular target: C7orf47; experiment: pooled miR-30 sensor sort-seq; sequence = guide strand; details: shRNA
Classification field: enter Criterion met for sensor-assay potency score (higher = more potent) values not below -0.8, Criterion not met for values below it.

Solved entries (count: 2):
TTCTGGGTCACACAAGATGGTC :: Criterion not met
TAGCGTTTCTGGGTCACACAAG :: Criterion not met

Req: Please indicate if the recorded sensor-assay potency score (higher = more potent) for TTTCTGGGTCACACAAGATGGT meets or exceeds -0.8.
Resp: Criterion not met

Req: // next record TAAAATAGCGTTTCTGGGTCAC
Resp: Criterion met

Req: And TAACACAAAAATACGAACTAGC ?
Resp: Criterion met

Req: Check ATTCATAAAATAGCGTTTCTGG too.
Resp: Criterion met

Req: Quick one: TGGGTCACACAAGATGGTCATG
Resp: Criterion not met

Req: Would you mind doing TCACACAAGATGGTCATGTCTG as well?
Resp: Criterion met

Req: Please give the result for TGGAGATTCATAAAATAGCGTT too.
Resp: Criterion met

====

Listing of entries alongside the reported sensor-assay potency score (higher = more potent).
molecular target: KRT85; experiment: pooled miR-30 sensor sort-seq; sequence = guide strand; details: shRNA

Req: Which value of sensor-assay potency score (higher = more potent) has been reported for TTTATTGAAACACAGATCGAGA in the records?
Resp: -0.788

Req: Now consider TTGACTATGACCGAGGTGTCTG .
Resp: -0.0564

Req: # repeat for TTGCTCTCGCAGCAGCGCTGGT
Resp: -1.3

Req: // next record ATCTTGACTATGACCGAGGTGT
Resp: -0.378

Req: Can you check TTGAAACACAGATCGAGACAAC next?
Resp: -0.784

Req: For TTCTTTAGAACGACAAACTCAT then?
Resp: 0.238

Req: // next record TAGAACGACAAACTCATTCTCT
Resp: 0.106

Req: Also check AACATCGTCATACTGAGCCTTG
Resp: -0.503

====

biological target: COPS7A; assay: pooled miR-30 sensor sort-seq; sequence = guide strand; conditions: shRNA
Below: a set of entries, each annotated with reported sensor-assay potency score (higher = more potent).

TTCTAGGATGAACATGTCCAGT :: -1.29
TTATTCTTCTGAGCCTCTGTTA :: -0.522
TACACTTTACTTTAGCAGCCAG :: -0.419
TAATACAATCTATATACCCTTC :: -0.206
TTTACTTTAGCAGCCAGGGTGA :: -0.299

Pending sequence:
Req: Entry TTCAGCTAAGTAGTCAGCGTAT has what sensor-assay potency score (higher = more potent)?
Resp: -0.555

====

In this section, each of the sequences is paired with its reported sensor-assay potency score (higher = more potent).
target: MMS22L; assay: pooled miR-30 sensor sort-seq; sequence = guide strand; details: shRNA

TAATCCACCAACTAAAACCTAA :: -0.962
TTGCTGACAACATAGGTGCAGG :: -1.03
TTTGAGATTGACAACACACGAT :: 0.337

# input for lookup
Req: For the sequence shown here, TTTTTTAACAACTTTTGCCAGA , give the reported sensor-assay potency score (higher = more potent).
Resp: -0.793

====

sensor-assay potency score (higher = more potent) values, listed per item
target: FBXO43; test: pooled miR-30 sensor sort-seq; sequence = guide strand; details: shRNA
// no unit string in output, number only

Worked set:
TTCATGTCCACTATTTTCCTGT :: 0.372
TTATCTTGAACAACAATTTCAC :: 0.0349

Req: // lookup sensor-assay potency score (higher = more potent) for TAACAGAAGAGCTTGCTAGAGG
Resp: -0.36

Req: For TAGGCTACAATCATCTTTGGAA then?
Resp: 0.408

Req: For TTTATCTTGAACAACAATTTCA then?
Resp: -0.614

====

Quick reference: sensor-assay potency score (higher = more potent) of the listed items.
biological target: LGALS1; test: pooled miR-30 sensor sort-seq; sequence = guide strand; conditions: shRNA

Here's what some known entries look like.
TTTGATCTTGAAGTCACCGTCA :: 0.476
TTGCACACGATGGTGTTGGCGT :: -0.422
TTGCTGTTGCACACGATGGTGT :: -0.61
TTCGTATCCATCTGGCAGCTTG :: -0.744

// next entry
Req: What sensor-assay potency score (higher = more potent) value was documented for this sequence, TTCAGCACGAAGCTCTTAGCGT ?
Resp: -0.712

====

# sensor-assay potency score (higher = more potent) per entry
target: RNF19A; experiment: pooled miR-30 sensor sort-seq; sequence = guide strand; details: shRNA
Quick one: just the number, no unit, thanks!

TCTGCTTGTACTTCCAACCTGT :: 0.605
TTTGTGCTTTGAAACATCCTTG :: 0.0546
TTATATAAGCAGCACATCGTGG :: -0.73
TAACATAATAGGAACACCGATA :: -0.784
TTGGGTTGTGTCTTGCTTCTGC :: 0.712
TTTTGTAATACTTATAACCTAA :: -0.606

Consider the additional sequence presented here.
Req: Return sensor-assay potency score (higher = more potent) measured with RNF19A given this sequence: TTGTCGAGCAGCATCACAGGTC
Resp: 0.0826

====

Reported sensor-assay potency score (higher = more potent) values are given for each entry in this list.
biological target: PPARGC1A; test: pooled miR-30 sensor sort-seq; sequence = guide strand; details: shRNA
When you answer, write just the number.

Req: Look up sensor-assay potency score (higher = more potent) for this sequence: TTAGACTTGAAAAATTGCTTGC
Resp: 0.583

Req: Further, for TTGCTGTTGACAAATACTCTTC ?
Resp: -0.955

Req: Now consider TTGTCTAGAGTCTTGGAGCTCC and answer again.
Resp: 0.145

Req: What do you get for TTCGTCGTCAAAAACAGCTTGA ?
Resp: -0.0941

Req: Would you kindly repeat that for TAGGTAATGAAACCATAGCTGT ?
Resp: -0.856

====

target: EPAS1; assay: pooled miR-30 sensor sort-seq; sequence = guide strand; details: shRNA
Think of -0.3 as a floor: if sensor-assay potency score (higher = more potent) stands on it or above, it is Y; beneath it, N.

TAGTTGACACACATGATGCACT :: N
TACAAGTTGTCCATCTGCTGGT :: Y
TTCAGCTTCAGCTTGTTGGAGA :: N
TTTAAGAACATTTCAGAACAGG :: N
TTTCAGGTACAAGTTGTCCATC :: N
TTCACCTCACAGTCATATCTGG :: Y
TTTTCTGACAGAAAGATCATGT :: Y
TAGAAGTCATTGAAGGTGGGGA :: Y
TAGTATGGACAGTTGTGTGTGA :: Y
TTGTGTGTTCGCAGGAAGCTGA :: N

Req: Entry TTGGGTGAACTTATCATTGGGT : is its sensor-assay potency score (higher = more potent) no less than -0.3?
Resp: Y

Req: What do you get for TTGAACAGGGATTCAGTCTGGT ?
Resp: Y

Req: Please answer likewise for TTGAGGTTGACAGTACGGCCTC
Resp: N

Req: Likewise for TAGAACACCTCCGTCTCCTTGC ?
Resp: Y
